For Acetylcholinesterase (Electrophorus electricus, UniProt O42275), measured pIC50 is reported for the entries below.
Keep it numeric: pIC50 is minus log10 of the concentration in mol/L.

Observe how each entry below is paired with its result.
| molecule | pIC50 |
| --- | --- |
| CCN(CC)CCCCCOc1ccc2c(=O)cc(-c3ccccc3)oc2c1C | 6.58 |
| Cc1c(OCCCCCN(C)C)ccc2c(=O)cc(-c3ccccc3)oc12 | 6.68 |

Asked: Name the recorded pIC50 of the item Cc1c(OCCCCN2CCN(C)CC2)ccc2c(=O)cc(-c3ccccc3)oc12 in your answer.
Given back: 5.78

Asked: Identify pIC50 associated with the molecule COC(=O)[C@@H]1CCCN1CCCCCOc1ccc2c(=O)cc(-c3ccccc3)oc2c1C
Given back: 4.71

Asked: Dear colleague, please send me the reported pIC50 for Cc1c(OCCCN2CCCC2)ccc2c(=O)cc(-c3ccccc3)oc12 when you can.
Given back: 6.02

###

The next entries give measured pIC50 for UniProt P81908.
Sequence (P81908 whole entry): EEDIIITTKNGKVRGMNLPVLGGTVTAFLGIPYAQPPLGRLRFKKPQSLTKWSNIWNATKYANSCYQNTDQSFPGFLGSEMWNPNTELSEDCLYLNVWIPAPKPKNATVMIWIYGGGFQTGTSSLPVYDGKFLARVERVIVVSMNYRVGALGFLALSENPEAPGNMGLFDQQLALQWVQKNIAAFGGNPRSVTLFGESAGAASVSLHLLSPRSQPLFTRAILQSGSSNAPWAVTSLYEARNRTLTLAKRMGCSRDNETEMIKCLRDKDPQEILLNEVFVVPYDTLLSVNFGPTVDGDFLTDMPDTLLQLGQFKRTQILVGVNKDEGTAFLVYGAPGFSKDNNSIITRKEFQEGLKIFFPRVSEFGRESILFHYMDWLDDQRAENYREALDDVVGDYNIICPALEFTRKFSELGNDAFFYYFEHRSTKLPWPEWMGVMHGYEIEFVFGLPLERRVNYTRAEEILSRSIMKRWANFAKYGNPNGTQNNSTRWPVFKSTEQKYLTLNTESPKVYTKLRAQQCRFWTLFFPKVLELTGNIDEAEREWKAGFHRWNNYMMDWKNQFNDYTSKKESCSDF
pIC50: −log10 of the molar value.

Completed entries (count: 3):
| compound | pIC50 |
| --- | --- |
| Cc1c(OCCN2CCCCC2C)ccc2c(=O)cc(-c3ccccc3)oc12 (configuration not stated) | < 4.00 |
| Cc1c(OCCCCN2CCOCC2)ccc2c(=O)cc(-c3ccccc3)oc12 | < 4.00 |
| CCN(CC)CCCCCOc1ccc2c(=O)cc(-c3ccccc3)oc2c1C | < 4.00 |

Asked: Provide pIC50, recorded with UniProt P81908, of Cc1c(OCCCCN(C)C)ccc2c(=O)cc(-c3ccccc3)oc12
Given back: < 4.00

Asked: Retrieve pIC50 on UniProt P81908; query Cc1c(OCCCCCN2CCOCC2)ccc2c(=O)cc(-c3ccccc3)oc12
Given back: < 4.00

Asked: For UniProt P81908, give pIC50 of the listed compound: Cc1c(OCCCCN2CCCCC2C)ccc2c(=O)cc(-c3ccccc3)oc12 (configuration not stated)
Given back: < 4.00

Asked: Find the measured pIC50 of Cc1c(O)ccc2c(=O)cc(-c3ccccc3)oc12 with UniProt P81908 as test system.
Given back: < 4.00

###

Dear all, this message contains pIC50 results, target or system Acetylcholinesterase (Electrophorus electricus, UniProt O42275).
Please treat pIC50 as minus the base-10 logarithm of the molar concentration.

Consider the reported pIC50 for these compounds:
| compound | pIC50 |
| --- | --- |
| Cc1c(OCCCCCCN2CCCC2)ccc2c(=O)cc(-c3ccccc3)oc12 | 6.12 |
| Cc1c(OCCCCCN2CCC(O)CC2)ccc2c(=O)cc(-c3ccccc3)oc12 | 6.22 |
| Cc1c(OCCN2CCC(O)CC2)ccc2c(=O)cc(-c3ccccc3)oc12 | 5.74 |
| Cc1c(OCCCCCN2CCCCC2C)ccc2c(=O)cc(-c3ccccc3)oc12 (stereo not drawn) | 6.67 |
| Cc1c(O)ccc2c(=O)cc(-c3ccccc3)oc12 | 4.06 |

Asked: Provide Acetylcholinesterase (Electrophorus electricus, UniProt O42275) pIC50 reading for Cc1c(OCCCCN2CCCCC2)ccc2c(=O)cc(-c3ccccc3)oc12 .
Given back: 6.63

Asked: Give pIC50 for Cc1c(OCCCN2CCC(O)CC2)ccc2c(=O)cc(-c3ccccc3)oc12 tested on Acetylcholinesterase (Electrophorus electricus, UniProt O42275).
Sequence (O42275 whole entry): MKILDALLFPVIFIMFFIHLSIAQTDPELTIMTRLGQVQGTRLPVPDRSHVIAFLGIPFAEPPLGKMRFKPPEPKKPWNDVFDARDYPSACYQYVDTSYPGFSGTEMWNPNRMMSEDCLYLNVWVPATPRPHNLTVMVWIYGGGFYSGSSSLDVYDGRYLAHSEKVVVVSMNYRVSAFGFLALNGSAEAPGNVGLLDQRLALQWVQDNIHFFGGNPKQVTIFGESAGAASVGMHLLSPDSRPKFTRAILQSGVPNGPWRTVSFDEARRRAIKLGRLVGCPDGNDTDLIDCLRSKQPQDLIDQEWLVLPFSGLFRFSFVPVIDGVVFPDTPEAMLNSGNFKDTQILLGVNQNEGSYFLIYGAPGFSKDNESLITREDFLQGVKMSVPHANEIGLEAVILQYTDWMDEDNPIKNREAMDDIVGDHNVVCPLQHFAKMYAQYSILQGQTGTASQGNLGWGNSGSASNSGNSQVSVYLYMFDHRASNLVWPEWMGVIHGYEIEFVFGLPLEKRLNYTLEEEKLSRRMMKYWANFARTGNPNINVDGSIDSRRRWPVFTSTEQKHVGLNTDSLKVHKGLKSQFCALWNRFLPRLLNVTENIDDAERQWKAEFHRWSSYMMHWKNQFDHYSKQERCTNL
Given back: 5.53

Asked: Provide pIC50, system Acetylcholinesterase (Electrophorus electricus, UniProt O42275), entry COC(=O)[C@@H]1CCCN1CCCCOc1ccc2c(=O)cc(-c3ccccc3)oc2c1C
Given back: 4.60
